Measured Target: T1, human Trop-2 (on the surface of human cell lines) (human, UniProt P09758 27-323)
T1 sequence: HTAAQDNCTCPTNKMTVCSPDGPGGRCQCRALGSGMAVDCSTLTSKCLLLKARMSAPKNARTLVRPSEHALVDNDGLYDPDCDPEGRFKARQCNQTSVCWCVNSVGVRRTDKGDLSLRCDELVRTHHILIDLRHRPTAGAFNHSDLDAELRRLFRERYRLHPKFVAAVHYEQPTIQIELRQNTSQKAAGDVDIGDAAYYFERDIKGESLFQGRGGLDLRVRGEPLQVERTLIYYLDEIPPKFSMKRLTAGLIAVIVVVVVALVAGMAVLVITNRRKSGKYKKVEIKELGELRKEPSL
Test Description: cell-based or functional assay
Recorded measurements of ADCC, PBMC killing (LDH), H322, Maximum killing (%), one per entry
Parameter Measured: ADCC, PBMC killing (LDH), H322, Maximum killing (%)

[
  {
    "Binder": "hz-Ab2-2.4 (antibody, human IgG1, kappa, V domains shown, Humanized antibody) VH: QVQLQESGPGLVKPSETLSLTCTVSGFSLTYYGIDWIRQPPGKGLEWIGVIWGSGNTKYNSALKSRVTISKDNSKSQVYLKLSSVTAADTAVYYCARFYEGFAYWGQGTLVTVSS VL: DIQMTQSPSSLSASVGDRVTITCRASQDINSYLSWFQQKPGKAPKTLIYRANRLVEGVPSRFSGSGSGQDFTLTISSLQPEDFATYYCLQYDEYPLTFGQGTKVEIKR",
    "Result": "46.7%"
  },
  {
    "Binder": "hz-Ab2-1.4 (antibody, human IgG1, kappa, V domains shown, Humanized antibody) VH: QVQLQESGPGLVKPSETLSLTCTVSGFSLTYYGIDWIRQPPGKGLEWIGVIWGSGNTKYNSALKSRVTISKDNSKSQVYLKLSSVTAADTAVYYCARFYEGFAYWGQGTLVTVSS VL: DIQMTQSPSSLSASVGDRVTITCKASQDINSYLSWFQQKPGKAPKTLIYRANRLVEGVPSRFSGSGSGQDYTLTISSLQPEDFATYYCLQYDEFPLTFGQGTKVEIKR",
    "Result": "48.7%"
  },
  {
    "Binder": "ch-Ab35 (antibody, human IgG1, kappa, V domains shown, Mouse VH/VL on human IgG1 and human kappa constant regions; also called chimeric antibody of Ab35) VH: EVQLQQSGPDLVRPGASVKLSCKASGYTFTSSDINWVKQRPGQGLEWIGWIYPRDGSKKYNEKFKGKATLTVDTSSSTAYMEVHSLTSEDSAVYFCATRFATVVSNYGLDPWGQGTSVTVSS VL: AIVLTQSPAIMSASPGEKVTMTCSASSSVNYIYWYQRKPGSSPRLLIYDTSNLASGVPVRFSGSGSGTSYSLTISRMEAEDAATYYCQQWNSYPLTFGAGTKLELKR",
    "Result": "51.9%"
  }
]
